# Applied Conditions: human gut metagenome, 24 h, 2 µM; further: call rule not given here
Assay Readout: Bacterial Biotransformation

- C[C@@H]1C[C@H]2[C@@H]3CCC4=CC(=O)C=C[C@]4(C)[C@@]3(F)[C@@H](O)C[C@]2(C)[C@@]1(O)C(=O)CO: Compound NOT metabolized
- CC[C@@H](CO)NC(=O)[C@@H]1C=C2c3cccc4c3c(cn4C)C[C@H]2N(C)C1.O=C(O)/C=C\C(=O)O [METHYSERGIDE MALEATE]: Compound NOT metabolized
- CCCCC1=NC2(CCCC2)C(=O)N1Cc1ccc(-c2ccccc2-c2nnn[nH]2)cc1: Compound metabolized
- COc1ccc(CCN(C)CCCC(C#N)(c2ccc(OC)c(OC)c2)C(C)C)cc1OC (stereo not drawn): Compound NOT metabolized
- Fc1ccc([C@@H]2CCNC[C@H]2COc2ccc3c(c2)OCO3)cc1: Compound NOT metabolized
- O=C1[C@H](CC[C@H](O)c2ccc(F)cc2)[C@@H](c2ccc(O)cc2)N1c1ccc(F)cc1: Compound NOT metabolized
- CN1CCN(C2=Nc3cc(Cl)ccc3Nc3ccccc32)CC1: Compound metabolized
- O=C(CCCN1CCC(O)(c2ccc(Cl)cc2)CC1)c1ccc(F)cc1: Compound metabolized

Where do these numbers come from? They come from ChEMBL document CHEMBL5724914.
